target: rat α3β4 nAChR (Rattus norvegicus, UniProt P04757+P12392); assay: cell-based
Sequence (P04757 26-499 limits assumed): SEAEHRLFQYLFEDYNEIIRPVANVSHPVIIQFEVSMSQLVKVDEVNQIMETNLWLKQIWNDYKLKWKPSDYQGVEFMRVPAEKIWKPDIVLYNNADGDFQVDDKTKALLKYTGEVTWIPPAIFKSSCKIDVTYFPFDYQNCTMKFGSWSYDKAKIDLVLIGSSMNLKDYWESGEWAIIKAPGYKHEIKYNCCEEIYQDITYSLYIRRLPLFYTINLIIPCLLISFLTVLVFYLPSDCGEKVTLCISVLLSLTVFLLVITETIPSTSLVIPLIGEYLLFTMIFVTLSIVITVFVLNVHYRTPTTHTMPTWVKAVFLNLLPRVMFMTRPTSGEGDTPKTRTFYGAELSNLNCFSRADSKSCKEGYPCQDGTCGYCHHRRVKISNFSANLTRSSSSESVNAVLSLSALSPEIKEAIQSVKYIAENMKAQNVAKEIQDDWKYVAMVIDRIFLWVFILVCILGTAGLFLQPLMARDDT
Sequence (P12392 21-495 limits assumed): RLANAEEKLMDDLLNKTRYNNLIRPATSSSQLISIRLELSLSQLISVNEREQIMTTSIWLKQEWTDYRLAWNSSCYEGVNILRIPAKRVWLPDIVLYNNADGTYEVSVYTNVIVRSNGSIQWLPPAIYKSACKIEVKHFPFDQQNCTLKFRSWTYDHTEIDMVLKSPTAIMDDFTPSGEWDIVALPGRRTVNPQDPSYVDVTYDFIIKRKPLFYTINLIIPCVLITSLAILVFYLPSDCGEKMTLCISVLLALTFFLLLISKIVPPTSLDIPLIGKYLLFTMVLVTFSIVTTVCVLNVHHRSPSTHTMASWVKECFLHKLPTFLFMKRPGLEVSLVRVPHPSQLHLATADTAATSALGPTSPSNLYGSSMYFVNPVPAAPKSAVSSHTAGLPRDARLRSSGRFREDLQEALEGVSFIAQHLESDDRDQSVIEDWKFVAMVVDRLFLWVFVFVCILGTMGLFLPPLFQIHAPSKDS
Peptide text beside a SMILES is read from it.
PROPERTY MEASURED: α3β4 IC50 ratio
Give the figure by itself; no unit, no explanation.

MOLECULE	α3β4 IC50 ratio
CC[C@H](C)[C@@H]1NC(=O)[C@@H]2CCCN2C(=O)[C@H](CO)NC(=O)[C@H](CCSC)NC(=O)[C@H](C)NC(=O)[C@H](CO)NC(=O)[C@@H]2CSSC[C@H](NC(=O)CN)C(=O)N[C@@H](CSSC[C@@H](C(N)=O)NC1=O)C(=O)N[C@@H](C)C(=O)N[C@@H](Cc1c[nH]cn1)C(=O)N1CCC[C@H]1C(=O)N[C@@H](C(C)C)C(=O)N2 [TxID[S4A]] (HELM PEPTIDE1{G.C.C.A.H.P.V.C.S.A.M.S.P.I.C.[am]}$PEPTIDE1,PEPTIDE1,2:R3-8:R3|PEPTIDE1,PEPTIDE1,3:R3-15:R3$$$V2.0)	3.0

Looking up CSCC[C@@H]1NC(=O)[C@H](C)NC(=O)[C@H](CO)NC(=O)[C@@H]2CSSC[C@H](NC(=O)CN)C(=O)N[C@@H](CSSC[C@@H](C(N)=O)NC(=O)[C@H](CCCNC(=N)N)NC(=O)[C@@H]3CCCN3C(=O)[C@H](CO)NC1=O)C(=O)N[C@@H](CO)C(=O)N[C@@H](Cc1c[nH]cn1)C(=O)N1CCC[C@H]1C(=O)N[C@@H](C(C)C)C(=O)N2 [TxID[I14R]] (HELM PEPTIDE1{G.C.C.S.H.P.V.C.S.A.M.S.P.R.C.[am]}$PEPTIDE1,PEPTIDE1,2:R3-8:R3|PEPTIDE1,PEPTIDE1,3:R3-15:R3$$$V2.0) , I see its α3β4 IC50 ratio listed as 2.5

====

target: rat α6/α3β4 nAChR (Rattus norvegicus, UniProt P04757+P12392+P43143); assay: cell-based
Sequence (P04757 whole entry, looked up): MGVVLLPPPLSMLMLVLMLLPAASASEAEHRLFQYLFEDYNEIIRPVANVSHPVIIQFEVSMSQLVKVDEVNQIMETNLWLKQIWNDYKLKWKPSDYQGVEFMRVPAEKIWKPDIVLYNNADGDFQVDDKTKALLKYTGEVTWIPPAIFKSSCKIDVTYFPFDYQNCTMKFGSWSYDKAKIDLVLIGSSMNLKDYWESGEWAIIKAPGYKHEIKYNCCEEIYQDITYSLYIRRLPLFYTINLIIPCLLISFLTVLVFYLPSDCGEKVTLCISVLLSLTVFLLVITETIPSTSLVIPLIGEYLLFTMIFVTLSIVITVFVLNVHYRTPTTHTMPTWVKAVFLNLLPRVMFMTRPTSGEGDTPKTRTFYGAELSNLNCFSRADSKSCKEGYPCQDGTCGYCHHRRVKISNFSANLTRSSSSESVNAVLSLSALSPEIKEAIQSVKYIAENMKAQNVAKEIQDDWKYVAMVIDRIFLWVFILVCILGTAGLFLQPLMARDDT
Sequence (P12392 whole entry, looked up): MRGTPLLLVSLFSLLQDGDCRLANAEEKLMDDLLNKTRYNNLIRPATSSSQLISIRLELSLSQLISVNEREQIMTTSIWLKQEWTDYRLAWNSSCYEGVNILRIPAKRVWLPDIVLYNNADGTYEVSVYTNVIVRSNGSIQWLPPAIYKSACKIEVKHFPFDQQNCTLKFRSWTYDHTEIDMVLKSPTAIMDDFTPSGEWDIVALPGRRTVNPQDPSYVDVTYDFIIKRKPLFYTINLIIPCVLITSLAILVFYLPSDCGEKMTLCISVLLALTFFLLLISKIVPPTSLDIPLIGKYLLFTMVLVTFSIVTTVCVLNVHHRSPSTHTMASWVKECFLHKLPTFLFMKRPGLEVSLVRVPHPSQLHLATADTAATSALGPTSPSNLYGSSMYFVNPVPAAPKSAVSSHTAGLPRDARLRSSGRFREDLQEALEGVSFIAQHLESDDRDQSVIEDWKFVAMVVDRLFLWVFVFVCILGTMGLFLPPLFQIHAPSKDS
Sequence (P43143 whole entry, looked up): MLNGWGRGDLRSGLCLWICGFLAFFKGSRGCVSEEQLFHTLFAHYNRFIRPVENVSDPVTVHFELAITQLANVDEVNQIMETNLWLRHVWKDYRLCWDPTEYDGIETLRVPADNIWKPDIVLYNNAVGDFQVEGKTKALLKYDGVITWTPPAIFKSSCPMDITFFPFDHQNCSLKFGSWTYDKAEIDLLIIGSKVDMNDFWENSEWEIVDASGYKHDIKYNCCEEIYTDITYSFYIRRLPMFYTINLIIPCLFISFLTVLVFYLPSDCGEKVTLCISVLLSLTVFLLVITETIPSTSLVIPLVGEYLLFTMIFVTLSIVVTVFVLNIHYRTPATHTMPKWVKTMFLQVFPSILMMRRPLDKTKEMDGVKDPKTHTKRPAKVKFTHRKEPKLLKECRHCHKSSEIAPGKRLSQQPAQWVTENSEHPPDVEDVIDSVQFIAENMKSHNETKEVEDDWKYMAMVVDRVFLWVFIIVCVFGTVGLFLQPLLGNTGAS
Peptide text beside a SMILES is read from it.
# maps each entry to its IC50 ratio of α6/α3β4 vs. α3β4 (Discrimination)
Give the figure by itself; no unit, no explanation.

COMPOUND	MEASUREMENT TARGET	OBSERVED
CSCC[C@@H]1NC(=O)[C@H](C)NC(=O)[C@H](CO)NC(=O)[C@@H]2CSSC[C@H](NC(=O)CN)C(=O)N[C@@H](CSSC[C@@H](C(N)=O)NC(=O)[C@H](CCCNC(=N)N)NC(=O)[C@@H]3CCCN3C(=O)[C@H](CO)NC1=O)C(=O)N[C@@H](CO)C(=O)N[C@@H](Cc1c[nH]cn1)C(=O)N1CCC[C@H]1C(=O)N[C@@H](C(C)C)C(=O)N2 [TxID[I14R]] (HELM PEPTIDE1{G.C.C.S.H.P.V.C.S.A.M.S.P.R.C.[am]}$PEPTIDE1,PEPTIDE1,2:R3-8:R3|PEPTIDE1,PEPTIDE1,3:R3-15:R3$$$V2.0)	rat α6/α3β4 nAChR (Rattus norvegicus, UniProt P04757+P12392+P43143)	7.3

# ---- query compound ----
Looking up CSCC[C@@H]1NC(=O)[C@H](C)NC(=O)[C@H](CO)NC(=O)[C@@H]2CSSC[C@H](NC(=O)CN)C(=O)N[C@@H](CSSC[C@@H](C(N)=O)NC(=O)[C@H](CC(C)C)NC(=O)[C@@H]3CCCN3C(=O)[C@H](CO)NC1=O)C(=O)N[C@@H](CO)C(=O)N[C@@H](Cc1c[nH]cn1)C(=O)N1CCC[C@H]1C(=O)N[C@@H](C(C)C)C(=O)N2 [TxID[I14L]] (HELM PEPTIDE1{G.C.C.S.H.P.V.C.S.A.M.S.P.L.C.[am]}$PEPTIDE1,PEPTIDE1,2:R3-8:R3|PEPTIDE1,PEPTIDE1,3:R3-15:R3$$$V2.0) , I see its IC50 ratio of α6/α3β4 vs. α3β4 (Discrimination) listed as 2.9

====

biological target: rat α3β4 nAChR (Rattus norvegicus, UniProt P04757+P12392); assay: cell-based
Peptide text beside a SMILES is read from it.
PROPERTY MEASURED: α3β4 IC50 ratio
Give the figure by itself; no unit, no explanation.

MOLECULE	OBSERVED
CSCC[C@@H]1NC(=O)[C@H](C)NC(=O)[C@H](CO)NC(=O)[C@@H]2CSSC[C@H](NC(=O)CN)C(=O)N[C@@H](CSSC[C@@H](C(N)=O)NC(=O)[C@H](CC(C)C)NC(=O)[C@@H]3CCCN3C(=O)[C@H](CO)NC1=O)C(=O)N[C@@H](CO)C(=O)N[C@@H](Cc1c[nH]cn1)C(=O)N1CCC[C@H]1C(=O)N[C@@H](C(C)C)C(=O)N2 [TxID[I14L]] (HELM PEPTIDE1{G.C.C.S.H.P.V.C.S.A.M.S.P.L.C.[am]}$PEPTIDE1,PEPTIDE1,2:R3-8:R3|PEPTIDE1,PEPTIDE1,3:R3-15:R3$$$V2.0)	2.8

Looking up CC[C@H](C)[C@@H]1NC(=O)[C@H](CC(=O)O)NC(=O)[C@@H]2CCCN2C(=O)[C@H](CO)NC(=O)[C@H](CCSC)NC(=O)[C@H](C)NC(=O)[C@H](CO)NC(=O)[C@@H]2CSSC[C@H](NC(=O)CN)C(=O)N[C@@H](CSSC[C@@H](C(N)=O)NC1=O)C(=O)N[C@@H](CO)C(=O)N[C@@H](Cc1c[nH]cn1)C(=O)N1CCC[C@H]1C(=O)N[C@@H](C(C)C)C(=O)N2 [TxID[14D]] (HELM PEPTIDE1{G.C.C.S.H.P.V.C.S.A.M.S.P.D.I.C.[am]}$PEPTIDE1,PEPTIDE1,2:R3-8:R3|PEPTIDE1,PEPTIDE1,3:R3-16:R3$$$V2.0) , I see its α3β4 IC50 ratio listed as 14.1

Looking up CC[C@H](C)[C@@H]1NC(=O)[C@@H]2CCCN2C(=O)[C@H](C)NC(=O)[C@H](CCSC)NC(=O)[C@H](C)NC(=O)[C@H](CO)NC(=O)[C@@H]2CSSC[C@H](NC(=O)CN)C(=O)N[C@@H](CSSC[C@@H](C(N)=O)NC1=O)C(=O)N[C@@H](CO)C(=O)N[C@@H](Cc1c[nH]cn1)C(=O)N1CCC[C@H]1C(=O)N[C@@H](C(C)C)C(=O)N2 [TxID[S12A]] (HELM PEPTIDE1{G.C.C.S.H.P.V.C.S.A.M.A.P.I.C.[am]}$PEPTIDE1,PEPTIDE1,2:R3-8:R3|PEPTIDE1,PEPTIDE1,3:R3-15:R3$$$V2.0) , I see its α3β4 IC50 ratio listed as 4.8

Looking up CSCC[C@@H]1NC(=O)[C@H](C)NC(=O)[C@H](CO)NC(=O)[C@@H]2CSSC[C@H](NC(=O)CN)C(=O)N[C@@H](CSSC[C@@H](C(N)=O)NC(=O)[C@H](C)NC(=O)[C@@H]3CCCN3C(=O)[C@H](CO)NC1=O)C(=O)N[C@@H](CO)C(=O)N[C@@H](Cc1c[nH]cn1)C(=O)N1CCC[C@H]1C(=O)N[C@@H](C(C)C)C(=O)N2 [TxID[I14A]] (HELM PEPTIDE1{G.C.C.S.H.P.V.C.S.A.M.S.P.A.C.[am]}$PEPTIDE1,PEPTIDE1,2:R3-8:R3|PEPTIDE1,PEPTIDE1,3:R3-15:R3$$$V2.0) , I see its α3β4 IC50 ratio listed as 4.4

Looking up CC[C@H](C)[C@@H]1NC(=O)[C@@H]2CCCN2C(=O)[C@H](CO)NC(=O)[C@H](CC(C)C)NC(=O)[C@H](C)NC(=O)[C@H](C)NC(=O)[C@@H]2CSSC[C@H](NC(=O)CN)C(=O)N[C@@H](CSSC[C@@H](C(N)=O)NC1=O)C(=O)N[C@@H](CO)C(=O)N[C@@H](Cc1c[nH]cn1)C(=O)N1CCC[C@H]1C(=O)N[C@@H](C(C)C)C(=O)N2 [TxID[S9A, M11I]] (HELM PEPTIDE1{G.C.C.S.H.P.V.C.A.A.L.S.P.I.C.[am]}$PEPTIDE1,PEPTIDE1,2:R3-8:R3|PEPTIDE1,PEPTIDE1,3:R3-15:R3$$$V2.0) , I see its α3β4 IC50 ratio listed as 8.4

Looking up CC[C@H](C)[C@@H]1NC(=O)[C@@H]2CCCN2C(=O)[C@H](Cc2ccc(O)cc2)NC(=O)[C@H](CCSC)NC(=O)[C@H](C)NC(=O)[C@H](CO)NC(=O)[C@@H]2CSSC[C@H](NC(=O)CN)C(=O)N[C@@H](CSSC[C@@H](C(N)=O)NC1=O)C(=O)N[C@@H](CO)C(=O)N[C@@H](Cc1c[nH]cn1)C(=O)N1CCC[C@H]1C(=O)N[C@@H](C(C)C)C(=O)N2 [TxID[S12Y]] (HELM PEPTIDE1{G.C.C.S.H.P.V.C.S.A.M.Y.P.I.C.[am]}$PEPTIDE1,PEPTIDE1,2:R3-8:R3|PEPTIDE1,PEPTIDE1,3:R3-15:R3$$$V2.0) , I see its α3β4 IC50 ratio listed as 2.5
